System: OVCAR-8 human ovarian carcinoma cells
Test: Cell proliferation assay (MTT), OVCAR-8
Format: cell-based
Settings: 72 h exposure, MTT; mean ± SE
attributeMeasured: IC50 (µM)
Please state the figure in µM; there is no need to write the unit.

Hey, OVCAR-8 human ovarian carcinoma cells data for CC#N.CC#N.CC#N.CC#N.Cc1cc(N=Cc2cccc(C)n2)c2c(c1)C1CC(O2)Oc2c(N=Cc3cccc(C)n3)cc(C)cc21.Cc1cc(N=Cc2cccc(C)n2)c2c(c1)C1CC(O2)Oc2c(N=Cc3cccc(C)n3)cc(C)cc21.F[B-](F)(F)F.F[B-](F)(F)F.F[B-](F)(F)F.F[B-](F)(F)F.[Fe+2].[Fe+2] [Compound 10, [Fe2(4)2(CH3CN)4](BF4)4] : IC50 came out at 1.65

----------
Test system: OVCAR-8 human ovarian carcinoma cells
Test: Cell proliferation assay (MTT), OVCAR-8
Type: cell-based
Conditions: ratio IC50 CCD-18Co / IC50 OVCAR-8
attributeMeasured: SI OVCAR-8 (selectivity index)
Just the number, please, no unit attached.

Record CC#N.CC#N.CC#N.CC#N.COc1cccc(C=Nc2cc(C)cc3c2OC2CC3c3cc(C)cc(N=Cc4cccc(OC)n4)c3O2)n1.COc1cccc(C=Nc2cc(C)cc3c2OC2CC3c3cc(C)cc(N=Cc4cccc(OC)n4)c3O2)n1.F[B-](F)(F)F.F[B-](F)(F)F.F[B-](F)(F)F.F[B-](F)(F)F.[Fe+2].[Fe+2] [Compound 11, [Fe25_2(CH3CN)4](BF4)4] . Reported SI OVCAR-8 (selectivity index): 8.6

# SI OVCAR-8 (selectivity index) (compound: CC#N.CC#N.CC#N.CC#N.Cc1cc(N=Cc2cccc(C)n2)c2c(c1)C1CC(O2)Oc2c(N=Cc3cccc(C)n3)cc(C)cc21.Cc1cc(N=Cc2cccc(C)n2)c2c(c1)C1CC(O2)Oc2c(N=Cc3cccc(C)n3)cc(C)cc21.F[B-](F)(F)F.F[B-](F)(F)F.F[B-](F)(F)F.F[B-](F)(F)F.[Fe+2].[Fe+2] [Compound 10, [Fe2(4)2(CH3CN)4](BF4)4] ) is 13.1

So for N.N.[Cl][Pt][Cl] [Cisplatin, cisplatin, reference compound] , the logged SI OVCAR-8 (selectivity index) turned out to be 4.5

For record CC#N.CC#N.CC#N.CC#N.Cc1cc(N=Cc2ccccn2)c2c(c1)C1CC(O2)Oc2c(N=Cc3ccccn3)cc(C)cc21.Cc1cc(N=Cc2ccccn2)c2c(c1)C1CC(O2)Oc2c(N=Cc3ccccn3)cc(C)cc21.F[B-](F)(F)F.F[B-](F)(F)F.F[B-](F)(F)F.F[B-](F)(F)F.[Fe+2].[Fe+2] [Compound 7, [Fe21_2(CH3CN)4](BF4)4] the listed SI OVCAR-8 (selectivity index) is 5.6

----------
Tested on: OVCAR-8 human ovarian carcinoma cells
Experiment: Cell proliferation assay (MTT), OVCAR-8
Type: cell-based
Details: 72 h exposure, MTT; mean ± SE
Please respond with reported pIC50 for every item in the list.
// pIC50 is dimensionless: -log10 of concentration (M)

// field: pIC50; key: CC#N.CC#N.CC#N.CC#N.Cc1cc(N=Cc2ccc3ccccc3n2)c2c(c1)C1CC(O2)Oc2c(N=Cc3ccc4ccccc4n3)cc(C)cc21.Cc1cc(N=Cc2ccc3ccccc3n2)c2c(c1)C1CC(O2)Oc2c(N=Cc3ccc4ccccc4n3)cc(C)cc21.F[B-](F)(F)F.F[B-](F)(F)F.F[B-](F)(F)F.F[B-](F)(F)F.[Fe+2].[Fe+2] [Compound 12, [Fe26_2(CH3CN)4](BF4)4] ; value = 5.91

Documented pIC50 of CC#N.CC#N.CC#N.CC#N.Cc1cc(N=Cc2ccc(Br)cn2)c2c(c1)C1CC(O2)Oc2c(N=Cc3ccc(Br)cn3)cc(C)cc21.Cc1cc(N=Cc2ccc(Br)cn2)c2c(c1)C1CC(O2)Oc2c(N=Cc3ccc(Br)cn3)cc(C)cc21.F[B-](F)(F)F.F[B-](F)(F)F.F[B-](F)(F)F.F[B-](F)(F)F.[Fe+2].[Fe+2] [Compound 9, [Fe23_2(CH3CN)4](BF4)4] : 5.75

The molecule listed as CC#N.CC#N.CC#N.CC#N.Cc1cc(N=Cc2cccc(Br)n2)c2c(c1)C1CC(O2)Oc2c(N=Cc3cccc(Br)n3)cc(C)cc21.Cc1cc(N=Cc2cccc(Br)n2)c2c(c1)C1CC(O2)Oc2c(N=Cc3cccc(Br)n3)cc(C)cc21.F[B-](F)(F)F.F[B-](F)(F)F.F[B-](F)(F)F.F[B-](F)(F)F.[Fe+2].[Fe+2] [Compound 8, [Fe22_2(CH3CN)4](BF4)4] shows pIC50 equal to 5.90
